Target: T1, CRBN, Q96SW2;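 further: pooled lentiviral library of zinc finger degron-EGFP fusions in mCherry-positive Jurkat cells, FACS-sorted after compound exposure, with degron abundance counted by next-generation sequencing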
T1 chain: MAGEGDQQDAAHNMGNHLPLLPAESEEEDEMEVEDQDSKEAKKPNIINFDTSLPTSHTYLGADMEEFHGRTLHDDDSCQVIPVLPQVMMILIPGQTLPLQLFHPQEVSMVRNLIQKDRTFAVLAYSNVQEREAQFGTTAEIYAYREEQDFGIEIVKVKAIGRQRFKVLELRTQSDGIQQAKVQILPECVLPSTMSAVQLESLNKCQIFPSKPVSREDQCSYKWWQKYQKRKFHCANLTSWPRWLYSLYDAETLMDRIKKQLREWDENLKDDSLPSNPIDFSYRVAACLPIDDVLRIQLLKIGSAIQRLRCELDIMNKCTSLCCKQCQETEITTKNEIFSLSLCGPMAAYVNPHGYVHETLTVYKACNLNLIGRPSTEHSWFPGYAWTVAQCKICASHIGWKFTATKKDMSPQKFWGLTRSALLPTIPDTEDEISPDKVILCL
Experiment: log2 fold change of degron read counts, EGFP-low vs EGFP+ sorted cells (limma voom), compound-induced degradation; higher = more compound-induced degradation of the degron-EGFP fusion; degrons are variants of IKZF1/3 zinc finger 2; compound dose not given here
Conditions: Jurkat; 18 h; compound: compound 19 (5-tert-butyl-thalidomide)
In all, about 8,300 sequences were measured (“log2 fold change of degron read counts, EGFP-low vs EGFP+ sorted cells (limma voom), compound-induced degradation”: median about -1.1, highest 2% from about 3.2 on). What follows is part of a selection rich in the highest values, with near analogues and random picks from the rest.
RESULT TYPE: log2 fold change of degron read counts
# output: bare number, no unit

> print(dat)
                             query.sequence                             result.type  assay.result
1  FYCPVCGAQFTQKGNLLRHIKL [46F_47Y_49P_50V_52G_53A_54Q_55F_67L_, Q9UKT9]  log2 fold change of degron read counts          2.88
2  FHCPVCGADFTQKGNLLRHIKL [46F_47H_49P_50V_52G_53A_54D_55F_67L_, Q9UKT9]  log2 fold change of degron read counts        -0.685
3  FICEVCGAAFTQKGNLLRHIKL [46F_47I_49E_50V_52G_53A_54A_55F_67L_, Q9UKT9]  log2 fold change of degron read counts        0.0772

Now, please, on to the next sequence.
Query (sequence): FFCEVCGAAFTQKGNLLRHIKL [46F_47F_49E_50V_52G_53A_54A_55F_67L_, Q9UKT9] ; field requested: log2 fold change of degron read counts
3.47

These entries and their values trace back to the supplement of paper PMC12645437.
